# pIC50 per entry
target: dihydrofolate reductase (DHFR) (Bacillus anthracis, UniProt Q81R22); test: biochemical; type: biochemical, B. anthracis Sterne
Sequence (Q81R22 1-162): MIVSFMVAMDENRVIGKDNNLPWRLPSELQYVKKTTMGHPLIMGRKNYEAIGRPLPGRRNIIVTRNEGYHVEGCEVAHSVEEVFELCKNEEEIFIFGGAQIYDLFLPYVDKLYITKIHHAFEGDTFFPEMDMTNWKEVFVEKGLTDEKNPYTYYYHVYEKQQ
Interpret pIC50 as the negative base-10 log of the concentration measured in mol/L.

>>> experimental_value("CCCc1nc(N)nc(N)c1Cc1cc(/C=C/C(=O)N2N=Cc3ccccc3C2CCC)c(OC)c(OC)c1 (centres unmarked)")
4.77

As a next step, examine the molecule that follows.
q: Tell me reported pIC50 for CCCC1c2ccccc2C=NN1C(=O)/C=C/c1cc(Cc2c(C)nc(N)nc2N)cc(OC)c1OC (centres unmarked) , tested with dihydrofolate reductase (DHFR) (Bacillus anthracis, UniProt Q81R22).
a: 6.29

The reported numbers originate from patent US20150065509A1.
